Give Tmax for every item shown.
# Format: in vivo, mice
# recorded-conditions: male, mouse, plasma, po, Tmax, Chronic BDPP
Answers are plain numbers, in min.

Use the examples below as a reference point.
Exercise: Tmax for "O=C(O)/C=C/c1ccc(O)c(O)c1" ?
Key: 18

Exercise: Same for O=C(O)Cc1ccc(O)cc1 [4-HPAA, 4-Hydroxyphenylacetic acid]
Key: 30

Exercise: Proceed to O=C(O)c1ccc(O)c(O)c1 [3,4-diHBA, 3,4-Dihydroxybenzoic acid]
Key: 18

Exercise: Can you handle "O=c1c(O)c(-c2cc(O)c(O)c(O)c2)oc2cc(O)cc(O)c12" next?
Key: 30

Consider the following items and state reported Tmax for each.
1. O=C(O)c1cc(O)c(O)c(O)c1
2. O=C(O)CCc1ccc(O)cc1 [4-HPPA, 3-(4-Hydroxyphenyl)propionic acid]
3. O=C(O)C=Cc1ccc(O)cc1 [4-HCA, 4-Hydroxycinnamic acid]
4. O=C(O)Cc1ccccc1
5. Oc1ccc(CCc2cc(O)cc(O)c2)cc1 [DHRSV, Dihydroresveratrol]
6. O=C(O)CNC(=O)c1ccccc1
7. COc1c(O)cc(C(=O)O)cc1O

Key:
18
30
18
30
60
60
30

Look up Tmax for the entries below, preserving their order.
1. COc1cc(C(=O)O)ccc1O
2. O=C(O)CNC(=O)c1ccc(O)cc1 [4-HHA, 4-Hydroxyhippuric acid]

Key:
[30, 18]

====

Answer each item with its documented log10 Tmax.
# Format: in vivo, mice
# recorded-conditions: male, mouse, brain, po, Tmax, Chronic Synbiotic
Reminder: these figures are log10 of reported Tmax, in h before transformation.

// solved cases for log10 Tmax follow
Exercise: Would you mind telling me what log10 Tmax value was observed for O=C(O)Cc1ccc(O)cc1 [4-HPAA, 4-Hydroxyphenylacetic acid] ?
Key: 0.00

Exercise: Note, next up: O=C(O)Cc1cccc(O)c1 [3-HPAA, 3-Hydroxyphenylacetic acid]
Key: -0.30

Kindly give each listed record's log10 Tmax.
1. O=C(O)Cc1ccc(O)c(O)c1 [3,4-diHPAA, 3,4-Dihydroxyphenylacetic acid]
2. O=C(O)CNC(=O)c1ccccc1
3. O=C(O)c1cccc(O)c1 [3-HBA, 3-Hydroxybenzoic acid]
4. COc1cc(-c2oc3cc(O)cc(O)c3c(=O)c2O)ccc1O
5. O=c1c(O)c(-c2ccc(O)cc2)oc2cc(O)cc(O)c12

Key:
0.30
0.90
0.60
0.00
0.00

Give log10 Tmax for each listed item.
1. COc1cc(C(=O)O)ccc1O
2. O=c1c(O)c(-c2cc(O)c(O)c(O)c2)oc2cc(O)cc(O)c12
3. COc1cc(CC(=O)O)ccc1O
4. O=c1c(O)c(-c2ccc(O)c(O)c2)oc2cc(O)cc(O)c12
5. O=C(O)c1ccc(O)cc1 [4-HBA, 4-Hydroxybenzoic acid]

Key:
[0.00, 0.00, 0.00, 0.30, 0.90]

====

Task for the reader: assign each of the following compounds its reported AUC.
# Assay type: in vivo, mice
# recorded-conditions: male, mouse, plasma, po, AUC, Chronic Synbiotic, over 24 h
One number for each entry, in µg·h/mL.

Example entries and their recorded answers appear below.
Exercise: # get_value(readout='AUC', item= O=C(O)C=Cc1ccc(O)cc1 [4-HCA, 4-Hydroxycinnamic acid] )
Key: 1.67

Exercise: How about this compound: "O=C(O)/C=C/c1ccc(O)c(O)c1"
Key: 0.0514

Exercise: Follow-up entry: O=C(O)CCc1cccc(O)c1 [3-HPPA, 3-(3-Hydroxyphenyl)propionic acid]
Key: 0.06

Shifting focus to the compound that follows.
Exercise: Would you mind telling me what AUC value was observed for "O=C(O)Cc1ccccc1" ?
Key: 8800
